# Tested on: Kochia (Kochia scoparia)
# protocol description: Test A preemergence
# Assay type: in vivo
# condition notes: Bassia scoparia, pre-emergence, 240 h, 125 g ai/ha, preemergence; 0 to 100 scale where 0 is no effect and 100 is complete control; read-out: Kochia plant response rating
measurement label: pest or weed control at 125 g/ha (%)
Quick note: give the figure in %, leave out the unit.

Exercise: pest or weed control at 125 g/ha lookup needed for "CN1C[C@H](c2cc(F)cc(F)c2)[C@@H](C(=O)Nc2ncc(C(F)(F)F)cc2F)C1=O" , thanks.
Solution: 0

Exercise: pest or weed control at 125 g/ha lookup needed for "COc1c(F)ccc([C@H]2CN(C)C(=O)[C@@H]2C(=O)Nc2cccc(F)c2F)c1Cl" , thanks.
Solution: 80

Exercise: pest or weed control at 125 g/ha lookup needed for "Cc1c(F)ccc([C@H]2CN(C)C(=O)[C@@H]2C(=O)Nc2ccccc2F)c1F" , thanks.
Solution: 70

Exercise: pest or weed control at 125 g/ha lookup needed for "CCOc1ccc([C@H]2CN(C)C(=O)[C@@H]2C(=O)Nc2ccccc2F)cc1" , thanks.
Solution: 20

Exercise: pest or weed control at 125 g/ha lookup needed for "COc1c(F)ccc([C@H]2CN(C)C(=O)[C@@H]2C(=O)Nc2ccc(F)cc2F)c1Cl" , thanks.
Solution: 60

###

# Test system: Kochia (Kochia scoparia)
# protocol description: Test A preemergence
# Format: in vivo
# condition notes: Preemergence, 500 g ai/ha, visual injury approx. 10 d
measurement label: Kochia plant response rating (0 to 100 scale, 0 is no effect, 100 is complete control)
# answer = number (no unit)

Exercise: Kochia plant response rating (0 to 100 scale, 0 is no effect, 100 is complete control) lookup needed for Cc1cc(C2CN(C)C(=O)C2C(=O)Nc2ccccc2F)ccc1F (stereo not drawn) [Compound 402] , thanks.
Solution: 70

Exercise: Kochia plant response rating (0 to 100 scale, 0 is no effect, 100 is complete control) lookup needed for Cc1cc(NC(=O)C2C(=O)NCC2c2ccc(F)c(F)c2)ccc1C(F)(F)F (stereo not drawn) [Compound 414] , thanks.
Solution: 0

Further cases:
Exercise: Kochia plant response rating (0 to 100 scale, 0 is no effect, 100 is complete control) lookup needed for C=C(Cl)CN1CC(c2cccc(C(F)(F)F)c2)C(C(=O)Nc2ccccc2F)C1=O (stereo not drawn) [Compound 482] , thanks.
Solution: 0

Exercise: Kochia plant response rating (0 to 100 scale, 0 is no effect, 100 is complete control) lookup needed for O=C1NCC(c2cccc(C#Cc3ccccc3)c2)C1C(=O)Nc1cccc(F)c1F (stereo not drawn) [Compound 451] , thanks.
Solution: 0

###

Overview of reported pest or weed control at 62.5 g/ha across a group of compounds:
# Test system: barnyardgrass (Echinochloa crus-galli)
# protocol description: Test G Post-Emergence Protocol
# Format: in vivo
# condition notes: Echinochloa crus-galli, post-emergence, 312 h, 62.5 g ai/ha, evaluated after 13 days, 100=total damage to plant, 0=no damage to plant, read-out: Barnyardgrass damage rating
Quick note: give the figure in %, leave out the unit.

Worked cases, answers included:
Exercise: Please provide the recorded pest or weed control at 62.5 g/ha for CN1C[C@H](c2cccc(C(F)(F)F)c2)[C@@H](C(=O)Nc2cnccc2S(C)(=O)=O)C1=O (racemic) , tested on barnyardgrass (Echinochloa crus-galli).
Solution: 60

Exercise: Please provide the recorded pest or weed control at 62.5 g/ha for Cc1cc(C2CN(C)C(=O)C2C(=O)Nc2cccc(F)c2F)cc(C(F)(F)F)c1 (stereo not shown) , tested on barnyardgrass (Echinochloa crus-galli).
Solution: 80

Exercise: Please provide the recorded pest or weed control at 62.5 g/ha for CN1C[C@H](c2cccc(C(F)(F)F)c2)[C@@H](C(=O)Nc2cc(O)ccc2F)C1=O (racemic) , tested on barnyardgrass (Echinochloa crus-galli).
Solution: 0

Exercise: Please provide the recorded pest or weed control at 62.5 g/ha for COCCOc1cc([C@@H]2CN(C)C(=O)[C@H]2C(=O)Nc2cccc(F)c2C)ccc1C (racemic) , tested on barnyardgrass (Echinochloa crus-galli).
Solution: 70

Exercise: Please provide the recorded pest or weed control at 62.5 g/ha for CN1CC(c2cc(C#N)cc(OC(F)(F)F)c2)C(C(=O)Nc2cccc(F)c2F)C1=O (stereo not shown) , tested on barnyardgrass (Echinochloa crus-galli).
Solution: 0

Exercise: Please provide the recorded pest or weed control at 62.5 g/ha for CC(C)S(=O)(=O)c1ccccc1NC(=O)[C@H]1C(=O)N(C)C[C@@H]1c1ccc(C(F)(F)F)cc1 (racemic) , tested on barnyardgrass (Echinochloa crus-galli).
Solution: 0

Further cases:
Exercise: Please provide the recorded pest or weed control at 62.5 g/ha for "CN1C[C@H](c2ccc(Cl)cc2)[C@@H](C(=O)Nc2cnccc2C(F)(F)F)C1=O" , tested on barnyardgrass (Echinochloa crus-galli).
Solution: 0
